- assay-system: full-length beta-Catenin (Uniprot ID P35222) (Homo sapiens (Human)) (UniProt P35222)
- experiment-summary: fluorescence polarization competition; full-length beta-catenin, competitor 5FAM-TCF4(10-53)
Starred links: 1 amine or outer side, 2 acyl side, 3 side chain; linkers in the order of their positions; H or OH if unused. Positions of bridges follow the written chain, without caps; N, C: chain ends. Non-standard residues stand in square brackets, D forms with d. Primed or numbered codes have the meaning given here. PyrS2″ = (S)-3-amino-1-((pent-4-en-1-yloxy)carbonyl)pyrrolidine-3-carboxylic acid (stapling residue), C=CCCCOC(=O)N1CC[C@@](N[*:1])(C(=O)[*:2])C1; B5(4) = 2,2-bis(4-pentenyl)glycine = 2-amino-2-(pent-4-en-1-yl)hept-6-enoic acid (stitching residue), C=CCCCC(CCCC=C)(N[*:1])C(=O)[*:2]; B5(5) = 2,2-bis(4-pentenyl)glycine, 2-amino-2-(pent-4-en-1-yl)hept-6-enoic acid (stitching residue), C=CCCCC(CCCC=C)(N[*:1])C(=O)[*:2]; TfeGA = (S)-2-amino-3-((carboxymethyl)(2,2,2-trifluoroethyl)amino)propanoic acid, O=C([C@H](CN(CC(=O)[*:3])CC(F)(F)F)N[*:1])[*:2]; Phe(3-COOH) = N[C@@H](Cc1cccc(C(=O)O)c1)C(=O)O; Phe(2-CF3) = N[C@@H](Cc1ccccc1C(F)(F)F)C(=O)O; Asp(3,3-Me2) = CC(C)(C(=O)O)[C@H](N)C(=O)O; Bta = N[C@@H](Cc1csc2ccccc12)C(=O)O; Lys(iPr) = CC(C)NCCCC[C@H](N)C(=O)O; αAllylPro = C=CC[C@@]1(C(=O)O)CCCN1; tBuAla = CC(C)(C)C[C@H](N)C(=O)O; 3Thi = N[C@@H](Cc1ccsc1)C(=O)O
measured-property: pIC50
// pIC50 is dimensionless: -log10 of concentration (M)

Below, 3 binders whose answers are already recorded.
binder	pIC50
Ac-[αAllylPro]D[tBuAla][B5(5)]D[Phe(3-COOH)]AAFL[PyrS2″][Phe(2-CF3)][Bta]QLL-NH2 (staple 1-4, 4-11) [I-2380]	6.48
Ac-[αAllylPro]D[tBuAla][B5(5)]D[TfeGA][Lys(iPr)]AFT[PyrS2″][3Thi][Bta]V-NH2 (staple 1-4, 4-11) [I-1764]	7.64
Ac-[αAllylPro]D[tBuAla][B5(4)][Asp(3,3-Me2)][TfeGA]AAFL[PyrS2″][3Thi][Bta]Q-NH2 (staple 1-4, 4-11) [I-1771]	6.68

Note: attention shifts to another entry.
Input line: Please look up its pIC50: Ac-[αAllylPro]D[tBuAla][B5(4)]D[TfeGA]AAFT[PyrS2″][3Thi][Bta]V-NH2 (staple 1-4, 4-11; also: -CH=CH- in each staple reduced to -CH2-CH2-) [I-1758]
Output line: 6.63
